- experiment.description: Aqueous solubility in at pH 7.4

# cpd.smiles, solubility
rows = [
    ("COc1ccc2c(c1)CCc1cnc(Nc3ccc(S(N)(=O)=O)cc3)nc1-2", "< 1 µg/mL"),
    ("NS(=O)(=O)c1ccc(Nc2nccc(-c3ccc(NC(=O)Cc4cccs4)cc3)n2)cc1", "< 1 µg/mL"),
    ("CC(C)(C)CC(=O)Nc1ccc(-c2ccnc(Nc3ccc(S(N)(=O)=O)cc3)n2)cc1", "< 1 µg/mL"),
    ("NS(=O)(=O)c1ccc(Nc2ncc3c(n2)-c2ccsc2CC3)cc1", "< 1 µg/mL"),
    ("CN(C)CCNS(=O)(=O)c1ccc(Nc2nccc(-c3ccsc3)n2)cc1", "> 100 µg/mL"),
]
